Sourced from paper PMC11206203

assay: Same desulfurative C-C cyclisation as series A (TCEP, Ir photocatalyst, blue light) with N-terminal Cys and C-terminal allylglycine (reversed pentapeptides); settings: the molecule shown is the open-chain precursor; 17-membered ring; 6 M Gdn.HCl, 0.1 M Na2HPO4 pH 7.5-8.0 / MeCN 9:1; 0.5 mM; 25.0 °C
ENDPOINT: ring closure, conversion by HPLC (%)
Write the number in % without appending the unit.

Give the reported value of ring closure, conversion by HPLC for this record: C=CC[C@H](NC(=O)[C@H](CCSC)NC(=O)[C@H](Cc1ccc(O)cc1)NC(=O)[C@H](CC(C)C)NC(=O)[C@H](CS)NC(C)=O)C(N)=O [Ac-Cys-Leu-Tyr-Met-(allylGly)-NH2]
21

Give the reported value of ring closure, conversion by HPLC for this record: C=CC[C@H](NC(=O)[C@H](CCC(=O)O)NC(=O)[C@H](Cc1ccccc1)NC(=O)[C@H](C)NC(=O)[C@H](CS)NC(C)=O)C(N)=O [Ac-Cys-Ala-Phe-Glu-(allylGly)-NH2]
0

Give the reported value of ring closure, conversion by HPLC for this record: C=CC[C@H](NC(=O)[C@H](CCSC)NC(=O)[C@H](Cc1ccc(O)cc1)NC(=O)[C@H](CC(C)C)NC(=O)[C@@H](N)CS)C(N)=O [H-Cys-Leu-Tyr-Met-(allylGly)-NH2]
0

Give the reported value of ring closure, conversion by HPLC for this record: C=CC[C@H](NC(=O)[C@H](CCC(N)=O)NC(=O)[C@H](Cc1c[nH]cn1)NC(=O)[C@@H](NC(=O)[C@@H](N)CS)C(C)C)C(N)=O [H-Cys-Val-His-Gln-(allylGly)-NH2]
0

Give the reported value of ring closure, conversion by HPLC for this record: C=CC[C@H](NC(=O)[C@H](CCCNC(=N)N)NC(=O)[C@H](Cc1c[nH]c2ccccc12)NC(=O)[C@@H](NC(=O)[C@@H](N)CS)[C@@H](C)CC)C(N)=O [H-Cys-Ile-Trp-Arg-(allylGly)-NH2]
0

----------
test: Same desulfurative C-C cyclisation as series A (TCEP, Ir photocatalyst, blue light) with N-terminal Cys and C-terminal allylglycine (reversed pentapeptides); details: the molecule shown is the open-chain precursor; 17-membered ring; 6 M Gdn.HCl, 0.1 M Na2HPO4 pH 7.5-8.0 / MeCN 9:1; 0.5 mM; 25.0 °C
Kindly supply the reported ring closure, conversion by HPLC values for the records listed here.
Write the number in % without appending the unit.

Give the reported value of ring closure, conversion by HPLC for this record: C=CC[C@H](NC(=O)[C@H](CCCCN)NC(=O)[C@@H]1CCCN1C(=O)[C@@H](NC(=O)[C@H](CS)NC(C)=O)[C@@H](C)O)C(N)=O
0

Give the reported value of ring closure, conversion by HPLC for this record: C=CC[C@H](NC(=O)[C@H](CCCCN)NC(=O)[C@@H]1CCCN1C(=O)[C@@H](NC(=O)[C@@H](N)CS)[C@@H](C)O)C(N)=O
0

Give the reported value of ring closure, conversion by HPLC for this record: C=CC[C@H](NC(=O)[C@H](CCCNC(=N)N)NC(=O)[C@H](Cc1c[nH]c2ccccc12)NC(=O)[C@@H](NC(=O)[C@H](CS)NC(C)=O)[C@@H](C)CC)C(N)=O
7

Give the reported value of ring closure, conversion by HPLC for this record: C=CC[C@H](NC(=O)[C@H](CCC(=O)O)NC(=O)[C@H](Cc1ccccc1)NC(=O)[C@H](C)NC(=O)[C@@H](N)CS)C(N)=O
25

Give the reported value of ring closure, conversion by HPLC for this record: C=CC[C@H](NC(=O)[C@H](CCC(N)=O)NC(=O)[C@H](Cc1c[nH]cn1)NC(=O)[C@@H](NC(=O)[C@H](CS)NC(C)=O)C(C)C)C(N)=O
28
